meta.source: the Immune Epitope Database (IEDB)

Target: HLA-B*57:01
Assay: IEDB peptide-MHC binding, purified MHC/direct/fluorescence; filed as Kd, often an IC50 or EC50 that approximates it; bounds were set here for any values at or beyond the usual limits of such assays
Details: source organism: Mycobacterium tuberculosis str. Haarlem
Experimental Readout: Kd

1) FHARFVQAL: ≥ 20 µM

---

Biological target: HLA-A*29:02
Experiment: IEDB peptide-MHC binding, purified MHC/competitive/fluorescence; filed as Kd, often an IC50 or EC50 that approximates it; bounds were set here for any values at or beyond the usual limits of such assays
Details: source organism: Burkholderia pseudomallei 406e
pKd: −log10 of the molar value.
Experimental Readout: pKd

1. MSWGWRLPF: 7.79

---

Target: HLA-A*11:01
Test: IEDB peptide-MHC binding, purified MHC/direct/fluorescence; filed as Kd, often an IC50 or EC50 that approximates it; bounds were set here for any values at or beyond the usual limits of such assays
Conditions: source organism: Vibrio vulnificus
pKd: −log10 of the molar value.
Entries and their measured pKd follow.
Experimental Readout: pKd

1) QSDIAGAIH: ≤ 4.70
2) EEVWRDPYL: ≤ 4.70

---

Target: HLA-A*24:03
Test: IEDB peptide-MHC binding, purified MHC/direct/fluorescence; filed as Kd, often an IC50 or EC50 that approximates it; bounds were set here for any values at or beyond the usual limits of such assays
Details: source organism: Yersinia pestis CA88-4125
Experimental Readout: Kd

1. QQRPDLILV: ≥ 20 µM

---

Target: HLA-B*73:01
Experiment: IEDB peptide-MHC binding, purified MHC/competitive/fluorescence; filed as Kd, often an IC50 or EC50 that approximates it; bounds were set here for any values at or beyond the usual limits of such assays
Settings: source organism: Yersinia enterocolitica subsp. enterocolitica 8081
Experimental Readout: Kd

1) WDYLVRHDA: 4.5 µM

---

Target: HLA-A*24:02
Assay: IEDB peptide-MHC binding, purified MHC/competitive/fluorescence; bounds were set here for any values at or beyond the usual limits of such assays
Details: source organism: Variola virus
pIC50: −log10 of the molar value.
Experimental Readout: pIC50

1. NPGTYVYFY: 4.26
2. WFNYLFGGF: 6.32
3. KAQREIFSA: 6.78

---

Target: HLA-B*15:01
Assay: IEDB peptide-MHC binding, purified MHC/competitive/radioactivity; filed as Kd, often an IC50 or EC50 that approximates it; bounds were set here for any values at or beyond the usual limits of such assays
Conditions: source organism: Dengue virus 3 Martinique/1243/1999
pKd: −log10 of the molar value.
Experimental Readout: pKd

1. ILALFLAHY: 7.27

---

Entries and their measured Kd follow.
Target: HLA-A*02:06
Assay: IEDB peptide-MHC binding, purified MHC/competitive/radioactivity; filed as Kd, often an IC50 or EC50 that approximates it; bounds were set here for any values at or beyond the usual limits of such assays
Settings: source organism: Dengue virus 1 Brazil/97-11/1997
Experimental Readout: Kd (nM)

1) HQLWTTLLSL: 91.8
2) SQVNPLTLTA: 167
3) ALIAVLTGGV: 20.3
4) GVVTTSGTYV: 665
5) AVLDDGIYRI: 10.5
6) FTVIALFLA: 3.16
7) MLLALIAVL: 524
8) KQWFLDLPL: 7.51

---

Target: HLA-B*53:01
Assay: IEDB peptide-MHC binding, purified MHC/competitive/radioactivity; filed as Kd, often an IC50 or EC50 that approximates it; bounds were set here for any values at or beyond the usual limits of such assays
Settings: source organism: Dengue virus 2 Peru/IQT2913/1996
pKd: −log10 of the molar value.
Experimental Readout: pKd

1) IMLIPTVMAF: 4.95

---

Target: HLA-A*26:01
Experiment: IEDB peptide-MHC binding, purified MHC/competitive/radioactivity; filed as Kd, often an IC50 or EC50 that approximates it; bounds were set here for any values at or beyond the usual limits of such assays
Settings: source organism: Lymphocytic choriomeningitis virus (strain Armstrong)
Experimental Readout: Kd

1. YEDKVWDKY: ≥ 77.9 µM

---

Target: HLA-A*03:01
Assay: IEDB peptide-MHC binding, purified MHC/competitive/radioactivity; filed as Kd, often an IC50 or EC50 that approximates it; bounds were set here for any values at or beyond the usual limits of such assays
Conditions: source organism: Mammarenavirus brazilense
Experimental Readout: Kd

1) SNSKEIPSFR: ≥ 33.3 µM

---

Entries and their measured Kd follow.
Target: HLA-A*24:02
Experiment: IEDB peptide-MHC binding, purified MHC/competitive/radioactivity; filed as Kd, often an IC50 or EC50 that approximates it; bounds were set here for any values at or beyond the usual limits of such assays
Conditions: source organism: Dengue virus 1 Brazil/97-11/1997
Experimental Readout: Kd (nM)

1. LWMASVEPHW: 231
2. VFGTAYGVLF: 73.7

---

Target: HLA-B*15:01
Experiment: IEDB peptide-MHC binding, purified MHC/direct/fluorescence; filed as Kd, often an IC50 or EC50 that approximates it; bounds were set here for any values at or beyond the usual limits of such assays
Details: source organism: Yersinia pestis
Experimental Readout: Kd (nM)

1) STFAASGPF: 7

---

Target: HLA-A*26:01
Experiment: IEDB peptide-MHC binding, purified MHC/competitive/fluorescence; filed as Kd, often an IC50 or EC50 that approximates it; bounds were set here for any values at or beyond the usual limits of such assays
Conditions: source organism: Salmonella enterica subsp. enterica serovar Choleraesuis str. SC-B67
Experimental Readout: Kd

1) GIALAVPCV: ≥ 20 µM

---

Biological target: HLA-A*02:03
Experiment: IEDB peptide-MHC binding, purified MHC/competitive/fluorescence; filed as Kd, often an IC50 or EC50 that approximates it; bounds were set here for any values at or beyond the usual limits of such assays
Conditions: source organism: Homo sapiens
Experimental Readout: Kd (nM)

1. VVPYEPPEV: 1120

---

Molecular target: HLA-B*15:03
Experiment: IEDB peptide-MHC binding, purified MHC/competitive/radioactivity; filed as Kd, often an IC50 or EC50 that approximates it; bounds were set here for any values at or beyond the usual limits of such assays
Settings: source organism: Vaccinia virus WR
pKd: −log10 of the molar value.
Experimental Readout: pKd

1. YQNHGFVSF: 8.61
2. ALVITINYF: 6.18
3. YQYIFLSFF: 9.03
4. TSNWTGNYF: 6.05
5. ILAPNPNRF: 7.58
6. ILVNQYSHM: 7.43
7. AKTSTLIFF: 8.81
8. FAAVEGIFF: 6.51
9. KIYNVTNPF: 8.12

---

Biological target: HLA-B*27:05
Assay: IEDB peptide-MHC binding, purified MHC/direct/fluorescence; filed as Kd, often an IC50 or EC50 that approximates it; bounds were set here for any values at or beyond the usual limits of such assays
Settings: source organism: Escherichia coli
Experimental Readout: Kd

1. WCRVGRGTI: ≥ 20 µM

---

Molecular target: HLA-A*24:02
Assay: IEDB peptide-MHC binding, purified MHC/competitive/fluorescence; bounds were set here for any values at or beyond the usual limits of such assays
Settings: source organism: Vaccinia virus Copenhagen
pIC50: −log10 of the molar value.
Experimental Readout: pIC50

1. KITFALKKL: 4.46

---

Target: HLA-A*24:03
Assay: IEDB peptide-MHC binding, purified MHC/competitive/fluorescence; filed as Kd, often an IC50 or EC50 that approximates it; bounds were set here for any values at or beyond the usual limits of such assays
Conditions: source organism: Plesiomonas shigelloides
Experimental Readout: Kd

1. LLFRMILNY: ≥ 20 µM

---

Biological target: HLA-A*32:01
Experiment: IEDB peptide-MHC binding, purified MHC/competitive/radioactivity; filed as Kd, often an IC50 or EC50 that approximates it; bounds were set here for any values at or beyond the usual limits of such assays
Settings: source organism: Dengue virus 1 Brazil/97-11/1997
pKd: −log10 of the molar value.
Entries and their measured pKd follow.
Experimental Readout: pKd

1. RTYSDPLAL: 7.48
2. KQWFLDLPL: 7.88
3. KTTWLPVLL: 6.83

---

Molecular target: HLA-B*40:01
Assay: IEDB peptide-MHC binding, purified MHC/competitive/fluorescence; filed as Kd, often an IC50 or EC50 that approximates it; bounds were set here for any values at or beyond the usual limits of such assays
Conditions: source organism: Giardia lamblia ATCC 50803
pKd: −log10 of the molar value.
Experimental Readout: pKd

1. MTYLDGHPV: ≤ 5.30

---

Target: HLA-A*26:01
Assay: IEDB peptide-MHC binding, purified MHC/competitive/radioactivity; filed as Kd, often an IC50 or EC50 that approximates it; bounds were set here for any values at or beyond the usual limits of such assays
Details: source organism: Mammarenavirus whitewaterense
pKd: −log10 of the molar value.
Experimental Readout: pKd

1) HDHHFTPQI: ≤ 4.11
2) TKHPSLNII: ≤ 4.11
